System: HIV-1NL4-3 K103N-Y181C
measurementProtocol: Luminescence Reduction Assay, luciferase reporter virus with resistance mutations in MT4 cells
Assay type: cell-based
assayConditions: Human immunodeficiency virus 1, MT4, read-out: EC50 (μM) MT4 cells HIV-1NL4-3 K103N-Y181C 2% FBS
Define the label as True when EC50 is strictly less than 0.01 µM and as False in all remaining cases.

[
  {
    "structure": "O=C1NCc2c1ccnc2-c1cc(-c2cc(F)cc(Cl)c2)n(-c2ccc(F)c(Cl)c2)n1",
    "cat": "True"
  },
  {
    "structure": "O=C1NCc2c1ccnc2-c1cc(-c2cccc(OC(F)F)c2)n(-c2ccc(F)c(Cl)c2)n1",
    "cat": "False"
  },
  {
    "structure": "O=C1NCc2c1ccnc2-c1cc(-c2cc(F)cc(Cl)c2)n(-c2cccnc2)n1",
    "cat": "False"
  },
  {
    "structure": "O=C1NCc2c1cccc2-c1cc(-c2cc(Br)cc(OC(F)F)c2)n(-c2cccnc2)n1",
    "cat": "False"
  },
  {
    "structure": "O=C1NCc2c1ccnc2-c1cc(-c2cc(Cl)cc(OC(F)F)c2)n(-c2cccnc2)n1",
    "cat": "True"
  },
  {
    "structure": "O=C1NCc2c1ccnc2-c1cc(-c2cc(Br)cc(OC(F)(F)F)c2)n(-c2ccc(F)c(Cl)c2)n1",
    "cat": "False"
  },
  {
    "structure": "O=C1NCc2c1ccnc2-c1cc(-c2cc(F)cc(OC(F)(F)F)c2)n(-c2cccnc2)n1",
    "cat": "True"
  }
]

====

log10(EC50) for assorted molecules
System: HIV-1NL4-3 K103N-Y181C
measurementProtocol: Luminescence Reduction Assay, luciferase reporter virus with resistance mutations in MT4 cells
Assay type: cell-based
assayConditions: Human immunodeficiency virus 1, MT4, read-out: EC50 (μM) MT4 cells HIV-1NL4-3 K103N-Y181C 2% FBS
observationType: log10(EC50) (log10 of the value in µM)

[
  {
    "molecule": "O=c1[nH][nH]c2c(-c3cc(-c4cc(F)cc(Cl)c4)n(-c4ccc(F)c(Cl)c4)n3)cccc12 [Example 29]",
    "targetSystem": "HIV-1NL4-3 K103N-Y181C",
    "log10(EC50)": 0.09
  },
  {
    "molecule": "O=C1NCc2c1cccc2-c1cc(-c2cc(F)cc(Cl)c2)n(-c2cccc(Cl)c2)n1 [Example 41]",
    "targetSystem": "HIV-1NL4-3 K103N-Y181C",
    "log10(EC50)": -0.82
  },
  {
    "molecule": "COc1cc(OC(F)(F)F)cc(-c2cc(-c3nccc4c3CNC4=O)nn2-c2ccc(F)c(Cl)c2)c1 [Example 27]",
    "targetSystem": "HIV-1NL4-3 K103N-Y181C",
    "log10(EC50)": -1.66
  },
  {
    "molecule": "O=C1NCc2c1ccnc2-c1cc(-c2cc(Br)cc(OC(F)F)c2)n(-c2cccnc2)n1 [Example 19]",
    "targetSystem": "HIV-1NL4-3 K103N-Y181C",
    "log10(EC50)": -2.72
  },
  {
    "molecule": "O=C1NCc2c1ccnc2-c1cc(-c2cc(F)cc(OC(F)F)c2)n(-c2ccc(F)c(Cl)c2)n1 [Example 15]",
    "targetSystem": "HIV-1NL4-3 K103N-Y181C",
    "log10(EC50)": -2.07
  },
  {
    "molecule": "O=C1NCc2c1ccnc2-c1cc(-c2cc(Cl)cc(OC(F)(F)F)c2)n(-c2ccc(F)c(Cl)c2)n1 [Example 9]",
    "targetSystem": "HIV-1NL4-3 K103N-Y181C",
    "log10(EC50)": -1.75
  }
]

====

Tested on: HIV-1NL4-3 wildtype
measurementProtocol: Luminescence Reduction Assay, luciferase reporter virus in MT4 cells
Assay type: cell-based
assayConditions: Human immunodeficiency virus 1, MT4, read-out: EC50 (μM) MT4 cells HIV-1NL4-3 wildtype 2% FBS
observationType: EC50 (µM)

[
  {
    "compound": "O=C1NCc2c1ccnc2-c1cc(-c2cncc(Cl)c2)n(-c2ccc(F)c(Cl)c2)n1 [Example 31]",
    "targetSystem": "HIV-1NL4-3 wildtype",
    "quantitativeReadout": 0.0008
  },
  {
    "compound": "O=C1NCc2c1ccnc2-c1cc(-c2cccc(OC(F)F)c2)n(-c2ccc(F)c(Cl)c2)n1 [Example 42]",
    "targetSystem": "HIV-1NL4-3 wildtype",
    "quantitativeReadout": 0.0098
  },
  {
    "compound": "O=C1NCc2c1cccc2-c1cc(-c2cccc(F)c2F)n(-c2ccc(F)c(Cl)c2)n1 [Example 34]",
    "targetSystem": "HIV-1NL4-3 wildtype",
    "quantitativeReadout": 0.131
  },
  {
    "compound": "Cc1nc2c(c(-c3cc(-c4cc(Cl)cc(OC(F)(F)F)c4)n(-c4cccnc4)n3)n1)CNC2=O [Example 46]",
    "targetSystem": "HIV-1NL4-3 wildtype",
    "quantitativeReadout": 0.0004
  },
  {
    "compound": "O=C1NCc2c1cccc2-c1cc(-c2cc(Cl)cc(OC(F)F)c2)n(-c2cccnc2)n1 [Example 18]",
    "targetSystem": "HIV-1NL4-3 wildtype",
    "quantitativeReadout": 0.0056
  },
  {
    "compound": "O=C1NCc2c1ccnc2-c1cc(-c2cc(F)cc(OC(F)F)c2)n(-c2ccc(F)c(Cl)c2)n1 [Example 15]",
    "targetSystem": "HIV-1NL4-3 wildtype",
    "quantitativeReadout": 0.0044
  },
  {
    "compound": "O=C1NCc2c1cccc2-c1cc(-c2cncc(Cl)c2)n(-c2ccc(F)c(Cl)c2)n1 [Example 32]",
    "targetSystem": "HIV-1NL4-3 wildtype",
    "quantitativeReadout": 0.0069
  },
  {
    "compound": "N#Cc1cc(-n2nc(-c3nccc4c3CNC4=O)cc2-c2cc(F)cc(Cl)c2)ccc1F [Example 24]",
    "targetSystem": "HIV-1NL4-3 wildtype",
    "quantitativeReadout": 0.0002
  },
  {
    "compound": "O=C1NCc2c1cccc2-c1cc(-c2cc(Cl)cc(OC(F)(F)F)c2)n(-c2cccnc2)n1 [Example 11]",
    "targetSystem": "HIV-1NL4-3 wildtype",
    "quantitativeReadout": 0.0091
  },
  {
    "compound": "O=C1NCc2c1ccnc2-c1cc(-c2cc(F)cc(OC(F)(F)F)c2)n(-c2ccc(F)c(Cl)c2)n1 [Example 5]",
    "targetSystem": "HIV-1NL4-3 wildtype",
    "quantitativeReadout": 0.011
  },
  {
    "compound": "O=C1NCc2c1ccnc2-c1cc(-c2cccc(F)c2F)n(-c2ccc(F)c(Cl)c2)n1 [Example 33]",
    "targetSystem": "HIV-1NL4-3 wildtype",
    "quantitativeReadout": 0.0227
  },
  {
    "compound": "O=C1NCc2c1ccnc2-c1cc(-c2ccc(F)c(OC(F)(F)F)c2)n(-c2cccc(Cl)c2)n1 [Example 43]",
    "targetSystem": "HIV-1NL4-3 wildtype",
    "quantitativeReadout": 0.0568
  },
  {
    "compound": "O=C1NCc2c1ccnc2-c1cc(-c2cccc(Cl)c2)n(-c2cccc(C(F)(F)F)c2)n1 [Example 37]",
    "targetSystem": "HIV-1NL4-3 wildtype",
    "quantitativeReadout": 0.0288
  },
  {
    "compound": "O=C1NCc2c1ccnc2-c1cc(-c2cc(Br)cc(OC(F)(F)F)c2)n(-c2cccnc2)n1 [Example 13]",
    "targetSystem": "HIV-1NL4-3 wildtype",
    "quantitativeReadout": 0.0011
  },
  {
    "compound": "O=C1NCc2c1cccc2-c1cc(-c2cc(F)cc(Cl)c2)n(-c2cccnc2)n1 [Example 4]",
    "targetSystem": "HIV-1NL4-3 wildtype",
    "quantitativeReadout": 0.0055
  },
  {
    "compound": "Cc1ccc(-n2nc(-c3nccc4c3CNC4=O)cc2-c2cc(F)cc(Cl)c2)cc1Cl [Example 28]",
    "targetSystem": "HIV-1NL4-3 wildtype",
    "quantitativeReadout": 0.0172
  }
]

====

Test system: HIV-1NL4-3 K103N-Y181C
measurementProtocol: Luminescence Reduction Assay, luciferase reporter virus with resistance mutations in MT4 cells
Type: cell-based
assayConditions: Human immunodeficiency virus 1, MT4, read-out: EC50 (μM) MT4 cells HIV-1NL4-3 K103N-Y181C 2% FBS
Define the label as yes when EC50 is strictly less than 0.06 µM and as no in all remaining cases.

[
  {
    "structure": "O=C1NCc2c1ncnc2-c1cc(-c2cc(Cl)cc(OC(F)(F)F)c2)n(-c2cccnc2)n1",
    "targetSystem": "HIV-1NL4-3 K103N-Y181C",
    "cat": "yes"
  },
  {
    "structure": "O=C1NCc2c1ccnc2-c1cc(-c2cc(Br)cc(OC(F)(F)F)c2)n(-c2cccnc2)n1",
    "targetSystem": "HIV-1NL4-3 K103N-Y181C",
    "cat": "yes"
  },
  {
    "structure": "Cc1ccc(-n2nc(-c3nccc4c3CNC4=O)cc2-c2cc(F)cc(Cl)c2)cc1Cl",
    "targetSystem": "HIV-1NL4-3 K103N-Y181C",
    "cat": "yes"
  },
  {
    "structure": "O=C1NCc2c1cccc2-c1cc(-c2cccc(F)c2F)n(-c2ccc(F)c(Cl)c2)n1",
    "targetSystem": "HIV-1NL4-3 K103N-Y181C",
    "cat": "no"
  },
  {
    "structure": "Cc1cc(F)cc(-c2cc(-c3cccc4c3CNC4=O)nn2-c2ccc(F)c(Cl)c2)c1",
    "targetSystem": "HIV-1NL4-3 K103N-Y181C",
    "cat": "yes"
  },
  {
    "structure": "N#Cc1cccc(-c2cc(-c3cccc4c3CNC4=O)nn2-c2ccc(F)cc2)c1",
    "targetSystem": "HIV-1NL4-3 K103N-Y181C",
    "cat": "no"
  },
  {
    "structure": "N#Cc1cc(-n2nc(-c3cccc4c3CNC4=O)cc2-c2cc(F)cc(Cl)c2)ccc1F",
    "targetSystem": "HIV-1NL4-3 K103N-Y181C",
    "cat": "yes"
  },
  {
    "structure": "O=C1NCc2c1cccc2-c1cc(-c2cc(F)cc(Cl)c2)n(-c2ccc(F)c(Cl)c2)n1",
    "targetSystem": "HIV-1NL4-3 K103N-Y181C",
    "cat": "yes"
  },
  {
    "structure": "O=C1NCc2c1ccnc2-c1cc(-c2cc(Cl)cc(OC(F)F)c2)n(-c2ccnc(Cl)c2)n1",
    "targetSystem": "HIV-1NL4-3 K103N-Y181C",
    "cat": "yes"
  },
  {
    "structure": "O=C1NCc2c1cccc2-c1cc(-c2cc(Cl)cc(OC(F)(F)F)c2)n(-c2cccnc2)n1",
    "targetSystem": "HIV-1NL4-3 K103N-Y181C",
    "cat": "yes"
  },
  {
    "structure": "O=C1NCc2c1ccnc2-c1cc(-c2cccc(Cl)c2)n(-c2cccc(C(F)(F)F)c2)n1",
    "targetSystem": "HIV-1NL4-3 K103N-Y181C",
    "cat": "no"
  },
  {
    "structure": "N#Cc1cc(-n2nc(-c3nccc4c3CNC4=O)cc2-c2cc(F)cc(Cl)c2)ccc1F",
    "targetSystem": "HIV-1NL4-3 K103N-Y181C",
    "cat": "yes"
  },
  {
    "structure": "O=C1NCc2c1cccc2-c1cc(-c2cccc(Cl)c2)n(-c2cccc(C(F)(F)F)c2)n1",
    "targetSystem": "HIV-1NL4-3 K103N-Y181C",
    "cat": "no"
  },
  {
    "structure": "O=C1NCc2c1cccc2-c1cc(-c2ccc(F)c(OC(F)(F)F)c2)n(-c2cccc(Cl)c2)n1",
    "targetSystem": "HIV-1NL4-3 K103N-Y181C",
    "cat": "no"
  },
  {
    "structure": "O=C1NCc2c1ccnc2-c1cc(-c2cc(Cl)cc(C(F)(F)F)c2)n(-c2ccc(F)c(Cl)c2)n1",
    "targetSystem": "HIV-1NL4-3 K103N-Y181C",
    "cat": "yes"
  }
]
